Test: logP by HPLC on reversed-phase columns (EEC Directive 79/831 Annex V.A8)
Format: physicochemical
Settings: pH 2.3
value type: log p [a]
One number for each entry.

Some compounds with known log p [a] results, for comparison:
compound: Ic1cnc(Nc2cccc(C3OCCCO3)c2)nc1NC1CC1 [Example 57]
log p [a]: 1.6
//
compound: C=CCOCC1COC(c2cccc(Nc3ncc(Br)c(NC4CC4)n3)c2)O1 (centres unmarked) [Example 107]
log p [a]: 2.01
//
compound: FC(F)(F)CNc1nc(Nc2cccc(C3OCCCO3)c2)ncc1Cl [Example 53]
log p [a]: 2.08
//
compound: C#CCNc1nc(Nc2cccc(C3OCCCO3)c2)ncc1Cl [Example 54]
log p [a]: 1.38
//
compound: Fc1cnc(Nc2cccc(C3OCCCO3)c2)nc1NC1CC1 [Example 51]
log p [a]: 1.23

State the recorded log p [a] for every item in the following list.
1. ClCC1COC(c2cccc(Nc3ncc(Cl)c(NC4CC4)n3)c2)O1 (centres unmarked) [Example 33]
2. COCC1COC(c2cccc(Nc3ncc(C(F)(F)F)c(NC4CC4)n3)c2)O1 (centres unmarked) [Example 105]

1.85
2.26
